# tested target: Human TASK-1 channels (Homo sapiens (Human))
# Sequence (O14649 whole entry): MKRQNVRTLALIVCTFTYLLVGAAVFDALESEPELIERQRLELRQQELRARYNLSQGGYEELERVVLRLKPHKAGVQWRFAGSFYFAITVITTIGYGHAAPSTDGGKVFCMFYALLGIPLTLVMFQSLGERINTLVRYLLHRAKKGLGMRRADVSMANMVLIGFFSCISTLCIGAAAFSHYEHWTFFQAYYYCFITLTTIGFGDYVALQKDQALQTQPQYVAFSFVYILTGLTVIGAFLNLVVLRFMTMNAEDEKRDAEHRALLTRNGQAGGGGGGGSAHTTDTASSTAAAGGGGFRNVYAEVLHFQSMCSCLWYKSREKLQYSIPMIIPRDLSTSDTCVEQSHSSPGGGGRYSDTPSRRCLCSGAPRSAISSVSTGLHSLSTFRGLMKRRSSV
# procedure text: Determination of the activity on the TASK-1 channel in Xenopus oocytes (two-microelectrode voltage clamp)
# Type: cell-based
# condition info: human TASK-1 expressed in Xenopus oocytes, room temperature; read-out: IC50 value for TASK-1 inhibition
List of pIC50 values.
pIC50 field: float, defined as -log10 of concentration (mol/L).

See these solved cases before continuing.
- compound: "CC(NC(=O)c1cc(C(=O)N[C@@H](c2ccc(F)cc2)C(C)C)n2c1COCC2)c1cnccn1 (single isomer, unassigned; diastereomer 1) [16lq]"
  pIC50: 6.15
- compound: "CCC(NC(=O)c1cc(C(=O)N[C@H](CC)c2ccccc2)c2n1CCOC2)c1cnc(OC)nc1 (single isomer, unassigned; diastereomer 2) [16hv]"
  pIC50: 6.12
- compound: "CC[C@@H](NC(=O)c1cc(C(=O)NC(C)c2cnccn2)n2c1COCC2)c1ccccc1 (single isomer, unassigned; diastereomer 1) [16if]"
  pIC50: 5.96
- compound: "CC[C@@H](NC(=O)c1cc(C(=O)NCc2cncc(F)c2)n2c1CCCC2)c1ccccc1 [16nb]"
  pIC50: 6.34

[in] Short answer please: pIC50, Human TASK-1 channels (Homo sapiens (Human)), entry CC[C@@H](NC(=O)c1cc(C(=O)N2CCC[C@@H]2C)n2c1COCC2)c1ccc2c(c1)OC(F)(F)O2 [16bz]
[out] 6.70

[in] Short answer please: pIC50, Human TASK-1 channels (Homo sapiens (Human)), entry CC[C@@H](NC(=O)c1cc(C(=O)NC(C)c2cnccn2)c2n1CCOC2)c1ccc(F)cc1F (single isomer, unassigned; diastereomer 1) [16pl]
[out] 6.37

[in] Short answer please: pIC50, Human TASK-1 channels (Homo sapiens (Human)), entry CCC(NC(=O)c1cc(C(=O)N2CCC[C@@H]2C)n2c1COCC2)c1ccc(S(F)(F)(F)(F)F)cc1 (stereo partly shown) [16bf]
[out] 6.13

[in] Short answer please: pIC50, Human TASK-1 channels (Homo sapiens (Human)), entry CC[C@H](NC(=O)c1cc(C(=O)N[C@H](C)c2ccc(F)cc2)n2c1COCC2)c1cnc(OC)cn1 [16dv]
[out] 6.72

[in] Short answer please: pIC50, Human TASK-1 channels (Homo sapiens (Human)), entry CC[C@@H](NC(=O)c1cc(C(=O)NC(C)c2cnccn2)c2n1CCOC2)c1ccccc1 (single isomer, unassigned; diastereomer 1) [16jw]
[out] 5.54

[in] Short answer please: pIC50, Human TASK-1 channels (Homo sapiens (Human)), entry CCC(NC(=O)c1cc(C(=O)N2CCC[C@@H]2C)n2c1COCC2)c1ncc(C(F)(F)F)s1 (single isomer, unassigned; diastereomer 2) [16ce]
[out] 6.55

Value source: patent US9884860B2
